IC50 values by entry
- Target system: UniProt:P00374
- Sequence (P00374 whole entry): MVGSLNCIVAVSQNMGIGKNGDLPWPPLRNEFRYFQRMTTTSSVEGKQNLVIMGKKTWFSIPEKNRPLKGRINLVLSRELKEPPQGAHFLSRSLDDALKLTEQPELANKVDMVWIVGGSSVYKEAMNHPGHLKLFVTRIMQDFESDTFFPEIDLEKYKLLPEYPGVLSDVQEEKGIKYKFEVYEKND
Unit µM implied. Number only.

C/C(=C/c1coc2nc(N)nc(N)c12)c1ccc(C(=O)N[C@@H](CCC(=O)O)C(=O)O)cc1.C/C(=C\c1coc2nc(N)nc(N)c12)c1ccc(C(=O)N[C@@H](CCC(=O)O)C(=O)O)cc1 (mixture of isomers) has a reported IC50 of 2.2

C/C(=C\c1coc2nc(N)nc(N)c12)c1ccc(C(=O)N[C@@H](CCC(=O)O)C(=O)O)cc1 has a reported IC50 of 42
